# assayed_target: hERG channel (Homo sapiens, UniProt Q12809)
# Construct: expressed in transfected cells; host or cells: CHO (Chinese hamster ovary), CHOhERG
# Sequence (Q12809 whole entry): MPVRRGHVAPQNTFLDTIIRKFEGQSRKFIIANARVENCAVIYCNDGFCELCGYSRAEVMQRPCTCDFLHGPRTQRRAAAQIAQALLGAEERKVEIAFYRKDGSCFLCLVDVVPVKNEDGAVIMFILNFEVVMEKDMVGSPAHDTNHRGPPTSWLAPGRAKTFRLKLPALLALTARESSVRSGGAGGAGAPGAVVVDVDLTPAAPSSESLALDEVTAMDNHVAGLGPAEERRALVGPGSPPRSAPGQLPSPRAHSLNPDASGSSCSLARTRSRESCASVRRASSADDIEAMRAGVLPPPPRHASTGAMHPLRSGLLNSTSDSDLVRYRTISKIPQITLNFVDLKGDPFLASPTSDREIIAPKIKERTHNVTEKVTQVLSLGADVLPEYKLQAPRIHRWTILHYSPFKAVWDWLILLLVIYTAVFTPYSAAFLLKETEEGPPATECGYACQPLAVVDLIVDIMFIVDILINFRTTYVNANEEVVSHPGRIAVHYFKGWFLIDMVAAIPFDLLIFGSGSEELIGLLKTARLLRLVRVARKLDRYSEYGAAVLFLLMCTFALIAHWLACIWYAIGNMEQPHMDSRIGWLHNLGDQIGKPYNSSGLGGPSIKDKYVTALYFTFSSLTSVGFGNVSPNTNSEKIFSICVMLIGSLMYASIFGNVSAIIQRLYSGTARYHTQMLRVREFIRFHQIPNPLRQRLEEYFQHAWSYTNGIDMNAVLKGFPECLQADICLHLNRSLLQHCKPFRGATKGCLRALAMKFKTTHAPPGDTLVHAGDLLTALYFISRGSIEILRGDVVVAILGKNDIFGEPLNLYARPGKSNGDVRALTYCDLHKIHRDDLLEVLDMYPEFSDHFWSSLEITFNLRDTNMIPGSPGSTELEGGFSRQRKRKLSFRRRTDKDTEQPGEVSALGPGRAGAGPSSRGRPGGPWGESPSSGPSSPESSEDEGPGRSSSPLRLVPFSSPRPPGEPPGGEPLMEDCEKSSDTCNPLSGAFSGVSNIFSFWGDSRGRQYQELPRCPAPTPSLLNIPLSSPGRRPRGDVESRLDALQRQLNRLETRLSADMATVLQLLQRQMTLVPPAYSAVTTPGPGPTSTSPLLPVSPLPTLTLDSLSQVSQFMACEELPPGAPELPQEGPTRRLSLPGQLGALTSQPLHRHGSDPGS
# assay_method_text: hERG channel inhibition assay (patch-clamp, CHOhERG cells)
# Type: cell-based
# assay_conditions: safety ratio
measurement_type: hERG IC20/TLR9 IC50

# compound, hERG IC20/TLR9 IC50
records = [
    ("CO[C@H]1CN(c2ccc(CCN3CCN4[C@@H](C3)CN(c3ccc(C#N)c5ncccc35)C[C@H]4C)cn2)C[C@@H]1N", ">156"),
    ("[2H]c1ccc2c(N3C[C@@H]4CN(c5ncc(N6C[C@@H]7C[C@H]6CN7)cc5C)CCN4[C@@H](C)C3)ccc(C#N)c2n1", ">84"),
    ("[2H]c1ccc2c(N3C[C@@H]4CN(c5ncc(N6CC(C)(N)C6)cc5C)CCN4[C@@H](C)C3)ccc(C#N)c2n1", 51),
    ("C[C@@H]1CN(c2ccc(C#N)c3ncccc23)C[C@@H]2CN(CCc3ccc(N4CC5(CN(C)C5)C4)nc3)CCN21", ">213"),
    ("[2H]c1ccc2c(N3C[C@@H]4CN(c5ccc([C@@H]6CNCCO6)cc5)CCN4[C@@H](C)C3)ccc(C#N)c2n1", ">78"),
    ("C[C@@H]1CN(c2ccc(C#N)c3ncccc23)C[C@@H]2CN(Cc3ccc4c(c3)CNCC4)CCN21 (relative stereo) [Example 1]", ">172"),
]

Report hERG IC20/TLR9 IC50 for `[2H]c1ccc2c(N3C[C@@H]4CN(c5ccc(N6CC7CCC(C6)N7)nc5)CCN4[C@@H](C)C3)ccc(C#N)c2n1` tested on hERG channel (Homo sapiens, UniProt Q12809).
>122

Report hERG IC20/TLR9 IC50 for `[2H]c1ccc2c(N3C[C@@H]4CN(Cc5ccc(N6CC7(CN(C)C7)C6)nc5C)CCN4[C@H](C)C3)ccc(C#N)c2n1` tested on hERG channel (Homo sapiens, UniProt Q12809).
>312
